measuredOn: human serum albumin (human) (UniProt P02768)
Sequence (P02768 25-609 limits assumed): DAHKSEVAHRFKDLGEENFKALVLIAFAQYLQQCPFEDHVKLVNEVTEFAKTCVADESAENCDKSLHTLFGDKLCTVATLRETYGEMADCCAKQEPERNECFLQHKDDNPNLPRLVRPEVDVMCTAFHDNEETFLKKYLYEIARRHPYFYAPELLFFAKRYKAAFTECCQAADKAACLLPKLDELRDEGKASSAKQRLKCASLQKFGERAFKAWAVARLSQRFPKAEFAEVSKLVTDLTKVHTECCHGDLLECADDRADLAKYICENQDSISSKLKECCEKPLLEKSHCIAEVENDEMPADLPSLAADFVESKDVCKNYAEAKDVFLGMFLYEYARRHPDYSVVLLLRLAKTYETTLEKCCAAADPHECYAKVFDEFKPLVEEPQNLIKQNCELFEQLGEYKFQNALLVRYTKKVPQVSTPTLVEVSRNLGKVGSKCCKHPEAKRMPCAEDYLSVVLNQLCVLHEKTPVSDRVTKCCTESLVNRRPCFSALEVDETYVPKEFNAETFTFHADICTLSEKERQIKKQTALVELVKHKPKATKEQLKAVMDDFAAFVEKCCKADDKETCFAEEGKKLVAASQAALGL
procedureText: primary solution ELISA screen
Parameter RLU: see the listing below.
The reply should contain only the number, in RLU.

INSERT INTO assay_data (binder, endpoint, observed) VALUES
  ('SEQ ID NO 10 (designed binder, not shown: small tags and cut ends) MLPAPKNLVVSRVTEDSARLSWTAPDAAFDSFKIAYIETATRGEAIVLTVPGSERSYDLTGLKPGTEYVVPIPGVKGGNTSSPLSAIFTT', 'RLU', 29300);

Now, please, on to the next binder.
Query string: Could you tell me which RLU is on file for SEQ ID NO 18 (designed binder, not shown: small tags and cut ends) MLPAPKNLVVSRVTEDSARLSWTAPDAAFDSFNIMYHEIIYVGEAIVLTVPGSERSYDLTGLKPGTEYPVPIEGVKGGGTSGPLSAIFTT ?
Result string: 10400
